test system: EKVX NSCLC; test: NCI tumour cell line growth inhibition, 48 h
Below, each of the compounds is paired with its reported TGI value.
Readout label: TGI (µM)

compound="CCC(=O)C(C)C(=O)C(=O)C(=O)OC (configuration not stated)" target_entity="EKVX NSCLC" relation_sign=> numeric_result=100
compound="O=C(O)C(C(=O)C(=O)C(C(=O)O)c1ccc(Cl)cc1)c1ccc(Cl)cc1 (configuration not stated)" target_entity="EKVX NSCLC" relation_sign== numeric_result=13.3
compound="NC(=O)CCC(NC(=O)c1cccc2c(=O)c3ccccc3[nH]c12)C(=O)O (configuration not stated)" target_entity="EKVX NSCLC" relation_sign=> numeric_result=100
compound=COc1ccc(/C=N\NC(=O)Nc2cccc3ccccc23)cc1 target_entity="EKVX NSCLC" relation_sign== numeric_result=95.2
compound="Fc1cccc(CSc2ncnc3c2ncn3C2CCCS2)c1 (configuration not stated)" target_entity="EKVX NSCLC" relation_sign== numeric_result=81.2
compound=COc1ccc(N=N/C(=N/NC(=O)c2cc(Cl)ccc2C(=O)c2ccccc2)c2ccc(N(CCC#N)CCC#N)cc2C)cc1 target_entity="EKVX NSCLC" relation_sign== numeric_result=61.1
compound=Clc1cc(OCC23CC4CC(CC(C4)C2)C3)nc(OCC23CC4CC(CC(C4)C2)C3)n1 target_entity="EKVX NSCLC" relation_sign=> numeric_result=100

* * *

tested on: ACHN renal; test: NCI tumour cell line growth inhibition, 48 h
Readout label: TGI

molecule=COc1ccc2c3c(c4ccccc4cc13)C(=O)N(CCN(C)CCN)C2=O result="0.17 µM"
molecule=C=CC[C@@H]1C=C[C@@H](C(=O)OC)n2c(=O)n(-c3ccccc3)c(=O)n21 result="> 100 µM"
molecule="COc1cc(C2c3cc4c(cc3OC3(OC)COC(=O)C23)OCO4)cc(OC)c1OC (stereo unspecified)" result="> 100 µM"
molecule=COc1ccc(C2=Nc3c/c(=C\c4c(O)[nH]c5ccc(Cl)cc45)ccc3=N2)cc1 result="3.47 µM"
molecule=N#CCOc1cccc(C2(N3CC=CCC3)CCCCC2)c1 result="> 100 µM"
molecule=COc1cc([C@@H]2c3cc4c(cc3[C@@H](N=Cc3ccc(C(=O)O[C@@H](C(=O)O[C@H]5C[C@@]6(O)[C@@H](OC(=O)c7ccccc7)[C@@H]7[C@]8(OC(C)=O)CO[C@@H]8C[C@H](O)[C@@]7(C)C(=O)[C@H](OC(C)=O)C(=C5C)C6(C)C)[C@@H](NC(=O)c5ccccc5)c5ccccc5)cc3)[C@H]3COC(=O)[C@H]23)OCO4)cc(OC)c1O result="> 50 µM"

* * *

Below, each of the compounds is paired with its reported TGI value.
tested on: HOP-18 NSCLC; assay: NCI tumour cell line growth inhibition, 48 h
Readout label: TGI

compound="COC(=O)[C@@]12OC[C@]34C([C@@H](O)C1O)[C@@]1(C)CC(=O)C(O)=C(C)C1C[C@H]3OC(=O)[C@H](OC(=O)/C=C(/c1ccccc1)C(F)(F)F)[C@H]42 (some centres undefined)" target_entity="HOP-18 NSCLC" result="> 25 µM"
compound=CCOC(=O)c1cc2c(cn1)[nH]c1cccc(N)c12 target_entity="HOP-18 NSCLC" result="> 100 µM"
compound=N/C(=N\N=C\c1cc2c(cc1Cl)OCO2)NO target_entity="HOP-18 NSCLC" result="> 100 µM"
compound=COc1ccc(-c2nnc(-c3c(C)n(C)n(-c4ccccc4)c3=O)o2)cc1 target_entity="HOP-18 NSCLC" result="> 100 µM"
compound=Cc1ccc(C(=O)N2CCN(C(=O)c3ccc(C)cc3)c3ccccc32)cc1 target_entity="HOP-18 NSCLC" result="> 100 µM"
compound="O=C1[C@H]2ON(c3ccccc3)C(c3ccccc3F)[C@H]2C(=O)N1c1ccc(Cc2ccc(N3C(=O)[C@@H]4ON(c5ccccc5)C(c5ccccc5F)[C@@H]4C3=O)cc2)cc1 (some centres undefined)" target_entity="HOP-18 NSCLC" result="> 100 µM"
compound=O=c1nc(NC(c2ccccc2)(c2ccccc2)c2ccccc2)ccn1CCO target_entity="HOP-18 NSCLC" result="> 100 µM"
compound=C=CC[N+](CCO)(CCO)CCCCCCCCCCCCCCCCCC target_entity="HOP-18 NSCLC" result="21.3 µM"
compound=C[C@H](N)C(=O)N[C@@H]1[C@H]2C(=C(O)C[C@@H](O)[C@@H]2O)C(=O)O[C@@H]1C target_entity="HOP-18 NSCLC" result="> 100 µM"

* * *

tested on: ACHN renal; test: NCI tumour cell line growth inhibition, 48 h; in the data active = GI50 below about 0.43 µM; inactive = the rest
Outcome codes: true (1) (active), false (0) (inactive)

compound="Cc1ccc(C(=O)/C(=C\\c2ccc([N+](=O)[O-])cc2)S(=O)Cc2ccc(F)cc2)cc1 (stereo not given)" answer_label="false (0)"
compound=O=C(O)c1ccc([S-])cc1.[Au+].c1ccc(CN2[CH-]N(Cc3ccccc3)C(c3ccccc3)=C2c2ccccc2)cc1 answer_label="true (1)"
compound=COc1ccc2c(c1)c1nc3cc(C)c(C)cc3nc1n2CCN(C)C answer_label="true (1)"
compound=Cc1cccc(Cl)c1NC(=O)c1cnc(Nc2cc(N3CCOCC3)cc(N3CCOCC3)c2)s1 answer_label="true (1)"
compound=CN1CCN(C(=O)c2c(NC(=O)NS(=O)(=O)c3ccccc3)sc3c2CCCCC3)CC1 answer_label="false (0)"

* * *

Below, each of the compounds is paired with its reported GI50 value.
tested on: HOP-62 NSCLC; test: NCI tumour cell line growth inhibition, 48 h
Readout label: GI50

smiles_string=C[n+]1c2ccccc2c(Nc2ccc(NS(=O)(=O)CCCCN=C(N)N)cc2)c2ccc(N)cc21 readout_label=GI50 result="0.217 µM"
smiles_string=O=C(/C=C/c1cccc([N+](=O)[O-])c1)c1ccc(O)c(CN2CCN(c3cc4c(cc3F)c(=O)c(C(=O)O)cn4C3CC3)CC2)c1 readout_label=GI50 result="3.47 µM"
smiles_string=CC1(C)N=C(N)N=C(N)N1c1ccc(CCc2ccc(Cl)cc2S(=O)(=O)F)c(Cl)c1 readout_label=GI50 result="7 µM"
smiles_string=O=C(O)c1ccc([S-])cc1.[Au+].c1ccc(CN2[CH-]N(Cc3ccccc3)C(c3ccccc3)=C2c2ccccc2)cc1 readout_label=GI50 result="0.416 µM"
smiles_string=CN[C@@H]1C[C@H]2O[C@@](C)([C@@H]1OC)n1c3ccccc3c3c4c(c5c6ccccc6n2c5c31)C(=O)N[C@H]4O readout_label=GI50 result="0.0187 µM"
smiles_string=O=C(NCCN1CCC(O)CC1)c1cc2c(o1)C(=O)c1ccccc1C2=O readout_label=GI50 result="0.23 µM"
smiles_string=O=C1c2cc(-c3ccccc3)ccc2-c2c1c1ccc([N+](=O)[O-])cc1c(=O)n2CCCBr readout_label=GI50 result="> 30.2 µM"
smiles_string=COc1cc2c(cc1OC)-c1ccc3cc4c(cc3c1N(CCN(C)C)C2)OCO4 readout_label=GI50 result="0.373 µM"
smiles_string=COc1cc(F)cc([C@@H](CO)NC(=O)[C@@H](C)N2Cc3ccc(-c4nc(NC5CCOCC5)ncc4Cl)cc3C2=O)c1 readout_label=GI50 result="0.0519 µM"

* * *

system: M14 melanoma; assay: NCI tumour cell line growth inhibition, 48 h
Readout label: GI50

compound="N#Cc1ccc(C2C3=C(CCCC3=O)OC3=C2C(=O)c2ccccc2C3=O)cc1 (configuration not stated)" readout_label=GI50 result="1.71 µM"
compound=Cn1c(/C=C(\C#N)c2cccc(C(F)(F)F)c2)nc2c(N3CCOCC3)nc(Cl)nc21 readout_label=GI50 result="0.733 µM"
compound=CC(C)[NH-].CC(C)[NH-].O.O.[Cl][Pt+2][Cl] readout_label=GI50 result="37.5 µM"
compound=CC1(C)CCC[C@]2(C)c3cc(O)ccc3CC[C@@H]12 readout_label=GI50 result="28.2 µM"
compound="COc1ccc(SC2c3ccc(C)cc3Oc3nc(N)c(C#N)c(N)c32)cc1 (configuration not stated)" readout_label=GI50 result="1.76 µM"
compound=O=C1C(Cl)=C(Nc2cccc(O)c2)C(=O)N1Cc1ccc(Cl)cc1 readout_label=GI50 result="4.43 µM"
compound=Cc1cccc(Cl)c1NC(=O)c1cnc(Nc2cc(N3CCOCC3)cc(N3CCOCC3)c2)s1 readout_label=GI50 result="4.18 µM"

* * *

tested on: RPMI-8226 leukemia; test: NCI tumour cell line growth inhibition, 48 h
Below, each of the molecules is paired with its reported TGI value.
Readout label: TGI

molecule=COc1ccc2nc(NCN3C(=O)c4ccccc4C3=O)sc2c1 target_entity="RPMI-8226 leukemia" result="> 100 µM"
molecule="CCCC(=O)Nc1cc(/C=C/C(=O)N2CC(CCl)c3c2cc([N+](=O)[O-])c2ccccc32)n(C)c1 (centres undefined)" target_entity="RPMI-8226 leukemia" result="> 100 µM"
molecule=COP(=O)(OC)c1ccc(NCc2cc(O)ccc2O)cc1 target_entity="RPMI-8226 leukemia" result="62.4 µM"
molecule=COc1ccc(-c2nnc(-c3c(C)n(C)n(-c4ccccc4)c3=O)o2)cc1 target_entity="RPMI-8226 leukemia" result="> 100 µM"
molecule="O=C(Nc1ccc2[nH]c(C(=O)N3CC(CCl)c4c3cc([N+](=O)[O-])c3ccccc43)cc2c1)c1cc2ccccc2o1 (centres undefined)" target_entity="RPMI-8226 leukemia" result="> 1100 µM"
molecule=CN[C@@H]1C[C@H]2O[C@@](C)([C@@H]1OC)n1c3ccccc3c3c4c(c5c6ccccc6n2c5c31)C(=O)N[C@H]4O target_entity="RPMI-8226 leukemia" result="1.49 µM"
molecule=COC(=O)c1c(O)ccc2c1c1c(n2Cc2ccccn2)C(=O)c2ccccc2C1=O target_entity="RPMI-8226 leukemia" result="> 100 µM"
molecule=c1ccc(CCN2CCN=C2Cc2ccccc2)cc1 target_entity="RPMI-8226 leukemia" result="> 100 µM"
molecule=Cc1cc(Nc2ccc(F)cc2)nc(N2CCN(c3ccnc4cc(Cl)ccc34)CC2)n1 target_entity="RPMI-8226 leukemia" result="> 100 µM"
